Molecular target: BRD4-BD1 (Homo sapiens (Human))
Test: bromoKdELECT assay for binding affinity to BRD4-BD1
Conditions: 11-point 3-fold dilution
reported.property: Kd

Use the examples below as a reference point.
CCS(=O)(=O)c1ccc(Oc2ccc(CN3CC4(C3)CN(c3ccc(C(=O)N[C@H]5CC[C@H](Oc6ccc(C#N)c(Cl)c6)CC5)nn3)C4)cc2)c(-c2cn(C)c(=O)c3[nH]ccc23)c1 : < 50 nM
CCS(=O)(=O)Cc1ccc(Oc2ccc(CCC3CCN(c4ccc(C(=O)NC5CCC(Oc6ccc(C#N)c(Cl)c6)CC5)nn4)CC3)cc2)c(-c2cn(C)c(=O)c3[nH]ccc23)c1 (centres unmarked) : 500 to 2500 nM
Cn1cc(-c2cc(S(=O)(=O)CCCCOC3CCN(c4ccc(C(=O)NC5CCC(Oc6ccc(C#N)c(Cl)c6)CC5)nn4)CC3)ccc2Oc2ccc(F)cc2F)c2cc[nH]c2c1=O (centres unmarked) : > 2500 nM

# lookup: BRD4-BD1 (Homo sapiens (Human)) Kd, key = `Cn1cc(-c2cc(C(C)(C)O)ccc2Oc2ccc(CCC3CCN(c4ccc(C(=O)N[C@H]5CC[C@H](Oc6ccc(C#N)c(Cl)c6)CC5)nn4)CC3)cc2)c2cc[nH]c2c1=O`
> 2500 nM

Write Kd of `CCS(=O)(=O)c1ccc(Oc2cccc(CCN3CCN(c4ccc(C(=O)N[C@H]5CC[C@H](Oc6ccc(C#N)c(Cl)c6)CC5)nn4)CC3)c2F)c(-c2cn(C)c(=O)c3[nH]ccc23)c1` ; system used: BRD4-BD1 (Homo sapiens (Human))
< 50 nM

---

Readings of Kd for the listed compounds
Target: BRD4-BD2 (Homo sapiens (Human), UniProt O60885)
Experiment: bromoKdELECT assay for binding affinity to BRD4-BD2
Settings: 11-point 3-fold dilution

CCS(=O)(=O)c1ccc(Oc2cccc(CCCC3CCN(c4ccc(C(=O)N[C@H]5CC[C@H](Oc6ccc(C#N)c(Cl)c6)CC5)nn4)CC3)c2F)c(-c2cn(C)c(=O)c3[nH]ccc23)c1 : 50 to 500 nM
CN(c1ccc(Oc2ccc(C(C)(C)O)cc2-c2cn(C)c(=O)c3[nH]ccc23)cc1)C1CCN(c2ccc(C(=O)N[C@H]3CC[C@H](Oc4ccc(C#N)c(Cl)c4)CC3)nn2)CC1 : 50 to 500 nM

Give the reported value of Kd for this record: `CCS(=O)(=O)c1ccc(Oc2cccc(OCCCC3CCN(c4ccc(C(=O)N[C@H]5CC[C@H](Oc6ccc(C#N)c(Cl)c6)CC5)nn4)CC3)c2F)c(-c2cn(C)c(=O)c3[nH]ccc23)c1`
500 to 2500 nM

Identify measured Kd corresponding to `Cn1cc(-c2cc(C(C)(C)O)ccc2Oc2ccc(OC3CN(c4ccc(C(=O)N[C@H]5CC[C@H](Oc6ccc(C#N)c(Cl)c6)CC5)nn4)C3)cc2)c2cc[nH]c2c1=O`
500 to 2500 nM

State, in one line, measured Kd of Cn1cc(-c2cc(S(=O)(=O)CCCCOC3CCN(c4ccc(C(=O)NC5CCC(Oc6ccc(C#N)c(Cl)c6)CC5)nn4)CC3)ccc2Oc2ccc(F)cc2F)c2cc[nH]c2c1=O (stereo not shown)
> 2500 nM

Tell me its Kd given `CCS(=O)(=O)c1ccc(Oc2cccc(CCCOC3CC4(C3)CN(c3ccc(C(=O)N[C@H]5CC[C@H](Oc6ccc(C#N)c(Cl)c6)CC5)nn3)C4)c2F)c(-c2cn(C)c(=O)c3[nH]ccc23)c1` as the entry.
500 to 2500 nM

---

Target: BRD4-BD2 (Homo sapiens (Human), UniProt O60885)
Experiment: bromoKdELECT assay for binding affinity to BRD4-BD2
Settings: 11-point 3-fold dilution
reported.property: Kd

Some compounds with recorded Kd:
CCS(=O)(=O)c1ccc(Oc2cc(F)c(CCC3CCN(c4ccc(C(=O)N[C@H]5CC[C@H](Oc6ccc(C#N)c(Cl)c6)CC5)nn4)CC3)cc2F)c(-c2cn(C)c(=O)c3[nH]ccc23)c1 [I-59] : 500 to 2500 nM
CCS(=O)(=O)Nc1ccc(Oc2ccc(CCC3CCN(c4ccc(C(=O)N[C@H]5CC[C@H](Oc6ccc(C#N)c(Cl)c6)CC5)nn4)CC3)cc2)c(-c2cn(C)c(=O)c3[nH]ccc23)c1 [I-38] : 500 to 2500 nM
CCS(=O)(=O)c1ccc(Oc2ccc(CCC3CCN(c4ccc(C(=O)N[C@H]5CC[C@H](Oc6ccc(C#N)c(Cl)c6)CC5)nn4)CC3)c(F)c2)c(-c2cn(C)c(=O)c3[nH]ccc23)c1 [I-54] : > 2500 nM
CCS(=O)(=O)c1ccc(Oc2ccc(CCC3CCN(c4ccc(C(=O)N[C@H]5CC[C@H](Oc6ccc(C#N)c(Cl)c6)CC5)nn4)CC3)cc2)c(-c2cn(C)c(=O)c3[nH]ccc23)c1 [I-50] : 50 to 500 nM

Proceeding to the next compound to report its Kd.
Give reported Kd value for CCS(=O)(=O)c1ccc(Oc2cccc(OCCC3CCN(c4ccc(C(=O)N[C@H]5CC[C@H](Oc6ccc(C#N)c(Cl)c6)CC5)nn4)CC3)c2F)c(-c2cn(C)c(=O)c3[nH]ccc23)c1 [I-42]
500 to 2500 nM

---

Biological target: BRD4-BD2 (Homo sapiens (Human))
Assay: bromoKdELECT assay for binding affinity to BRD4-BD2
Conditions: 11-point 3-fold dilution
pKd: −log10 of the molar value.
reported.property: pKd

The examples below pair each entry with its known result.
CCS(=O)(=O)Cc1ccc(Oc2cccc(OCCCC3CCN(c4ccc(C(=O)N[C@H]5CC[C@H](Oc6ccc(C#N)c(Cl)c6)CC5)nn4)CC3)c2F)c(-c2cn(C)c(=O)c3[nH]ccc23)c1 : 5.60 to 6.30
CCS(=O)(=O)c1ccc(Oc2ccc(CN3CC4(CCN(c5ccc(C(=O)N[C@H]6CC[C@H](Oc7ccc(C#N)c(Cl)c7)CC6)nn5)CC4)C3)cc2)c(-c2cn(C)c(=O)c3[nH]ccc23)c1 : > 7.30
Cn1cc(-c2cc(C(C)(C)O)ccc2O[C@H]2C[C@H](N(C)CC3CCN(c4ccc(C(=O)N[C@H]5CC[C@H](Oc6ccc(C#N)c(Cl)c6)CC5)nn4)CC3)C2)c2cc[nH]c2c1=O : 6.30 to 7.30

Give the measured pKd for `Cn1cc(-c2cc(C(C)(C)O)ccc2Oc2ccc(CCC3CCN(c4ccc(C(=O)N[C@H]5CC[C@H](Oc6ccc(C#N)c(Cl)c6)CC5)nn4)CC3)cc2F)c2cc[nH]c2c1=O`
< 5.60

Item CCS(=O)(=O)Cc1ccc(Oc2ccc(CCC3CCN(c4ccc(C(=O)NC5CCC(Oc6ccc(C#N)c(Cl)c6)CC5)nn4)CC3)cc2)c(-c2cn(C)c(=O)c3[nH]ccc23)c1 (stereo not drawn) : provide pKd
5.60 to 6.30

Report pKd for `Cn1cc(-c2cc(NC(=O)CCC3CCN(c4ccc(C(=O)N[C@H]5CC[C@H](Oc6ccc(C#N)c(Cl)c6)CC5)nn4)CC3)ccc2Oc2ccc(F)cc2F)c2cc[nH]c2c1=O`
5.60 to 6.30

---

Biological target: BRD4-BD1 (Homo sapiens (Human))
Assay: bromoKdELECT assay for binding affinity to BRD4-BD1
Details: 11-point 3-fold dilution
Consider the following compounds and their measured Kd readings.

CCS(=O)(=O)c1ccc(Oc2cccc(CCC3CCN(c4ccc(C(=O)N[C@H]5CC[C@H](Oc6ccc(C#N)c(Cl)c6)CC5)nn4)CC3)c2F)c(-c2cn(C)c(=O)c3[nH]ccc23)c1 [I-51] : 50 to 500 nM

Quote Kd reported for Cn1cc(-c2cc(C(C)(C)O)ccc2Oc2cc(F)c(CCOC3CCN(c4ccc(C(=O)N[C@H]5CC[C@H](Oc6ccc(C#N)c(Cl)c6)CC5)nn4)CC3)c(F)c2)c2cc[nH]c2c1=O [I-110] please.
> 2500 nM

Write down Kd measured for item CCS(=O)(=O)c1ccc(Oc2cccc(OCCCC3CCN(c4ccc(C(=O)N[C@H]5CC[C@H](Oc6ccc(C#N)c(Cl)c6)CC5)nn4)CC3)c2F)c(-c2cn(C)c(=O)c3[nH]ccc23)c1 [I-15]
500 to 2500 nM

---

Target: UniProt P10275
Sequence (P10275 whole entry, looked up): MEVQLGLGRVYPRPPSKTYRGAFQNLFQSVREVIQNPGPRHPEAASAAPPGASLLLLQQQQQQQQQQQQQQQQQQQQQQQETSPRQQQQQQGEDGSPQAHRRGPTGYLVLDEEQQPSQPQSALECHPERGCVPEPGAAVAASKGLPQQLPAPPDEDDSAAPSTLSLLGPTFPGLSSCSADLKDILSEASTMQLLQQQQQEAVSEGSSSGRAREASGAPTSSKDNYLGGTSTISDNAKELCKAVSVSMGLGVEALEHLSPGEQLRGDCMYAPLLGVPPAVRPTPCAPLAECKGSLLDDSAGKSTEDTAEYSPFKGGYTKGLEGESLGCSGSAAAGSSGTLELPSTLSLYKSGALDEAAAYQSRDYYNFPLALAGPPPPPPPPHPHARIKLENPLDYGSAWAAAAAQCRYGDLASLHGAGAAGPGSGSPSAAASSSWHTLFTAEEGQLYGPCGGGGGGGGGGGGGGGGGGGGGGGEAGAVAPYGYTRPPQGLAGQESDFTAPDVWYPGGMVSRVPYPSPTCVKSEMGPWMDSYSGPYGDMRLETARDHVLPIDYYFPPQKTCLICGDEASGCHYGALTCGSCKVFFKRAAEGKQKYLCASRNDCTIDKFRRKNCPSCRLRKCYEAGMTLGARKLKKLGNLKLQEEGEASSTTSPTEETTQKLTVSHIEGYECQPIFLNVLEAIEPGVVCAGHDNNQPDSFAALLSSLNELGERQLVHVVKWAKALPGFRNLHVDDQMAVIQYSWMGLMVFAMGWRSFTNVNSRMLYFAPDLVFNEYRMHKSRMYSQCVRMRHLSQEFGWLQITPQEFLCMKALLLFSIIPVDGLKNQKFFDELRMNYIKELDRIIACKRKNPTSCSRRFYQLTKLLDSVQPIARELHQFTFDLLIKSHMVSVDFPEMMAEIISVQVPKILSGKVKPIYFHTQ
pKd: −log10 of the molar value.
Quick list: pKd per entry.

Use these answered entries as a reference point.
Cn1cc(-c2cc(C(C)(C)O)ccc2Oc2ccc(CCC3CCN(c4ccc(C(=O)N[C@H]5CC[C@H](Oc6ccc(C#N)c(Cl)c6)CC5)nn4)CC3)cc2)c2cc[nH]c2c1=O : 6.30 to 7.30
CCS(=O)(=O)Nc1ccc(Oc2cccc(OCCOC3CCN(c4ccc(C(=O)N[C@H]5CC[C@H](Oc6ccc(C#N)c(Cl)c6)CC5)cn4)CC3)c2)c(-c2cn(C)c(=O)c3[nH]ccc23)c1 : 5.60 to 6.30

Then there is this compound:
Answer with reported pKd of `CCS(=O)(=O)Nc1ccc(Oc2cccc(OCCOC3CCN(c4cnc(C(=O)N[C@H]5CC[C@H](Oc6ccc(C#N)c(Cl)c6)CC5)cn4)CC3)c2)c(-c2cn(C)c(=O)c3[nH]ccc23)c1`
5.60 to 6.30
